Just for reference, paper PMC10215143 is where these values come from.

- Tested on: Human erythrocytes
- ASSAY_SUMMARY: Hemolysis assay
- Assay type: cell-based
- COND: human erythrocytes 0.4% (v/v), 37 °C, 60 min, 6.25 to 400 µM
Where a SMILES comes first, the peptide text is derived from it. [ ]: non-standard residue; d: D form. The star is where a group is joined. NMeF = CN[C@@H](Cc1ccccc1)C(=O)O; NMeK = CN[C@@H](CCCCN)C(=O)O; Decanoyl = CCCCCCCCCC(=O)*
ENDPOINT_LABEL: HC50 ± SD

INSERT INTO results (compound, target_system, endpoint_label, observed_value) VALUES
  ('CCCCCCCCCC(=O)N[C@H](C(=O)N[C@@H](CCCCN)C(=O)N[C@@H](CCC(N)=O)C(=O)N[C@H](C(=O)N(C)[C@@H](CCCCN)C(=O)N[C@@H](CCCCN)C(=O)N[C@@H](CC(C)C)C(=O)N[C@@H](Cc1ccccc1)C(=O)N[C@@H](CCCCN)C(=O)N[C@@H](CCCCN)C(N)=O)C(C)C)[C@@H](C)CC [C10:0-A2(5-NMeLys), C10:0-IKQV(NMe-K)KLFKK-NH2] (Decanoyl-IKQV[NMeK]KLFKK-NH2)', 'Human erythrocytes', 'HC50 ± SD', '>400 µM'),
  ('CCCCCCCCCC(=O)N[C@H](C(=O)N[C@@H](CCCCN)C(=O)N[C@@H](CCC(N)=O)C(=O)N[C@H](C(=O)N[C@@H](CCCCN)C(=O)N[C@@H](CCCCN)C(=O)N[C@@H](CC(C)C)C(=O)N(C)[C@@H](Cc1ccccc1)C(=O)N[C@@H](CCCCN)C(=O)N[C@@H](CCCCN)C(N)=O)C(C)C)[C@@H](C)CC [C10:0-A2(8-NMePhe), C10:0-IKQVKKL(NMe-F)KK-NH2] (Decanoyl-IKQVKKL[NMeF]KK-NH2)', 'Human erythrocytes', 'HC50 ± SD', '>400 µM'),
  ('CCCCCCCCCC(=O)N[C@H](C(=O)N[C@@H](CCCCN)C(=O)N[C@@H](CCC(N)=O)C(=O)N[C@H](C(=O)N[C@@H](CCCCN)C(=O)N[C@@H](CCCCN)C(=O)N[C@@H](CC(C)C)C(=O)N[C@@H](Cc1ccccc1)C(=O)N[C@@H](CCCCN)C(=O)N[C@@H](CCCCN)C(N)=O)C(C)C)[C@@H](C)CC [C10:0-A2, C10:0-IKQVKKLFKK-NH2] (Decanoyl-IKQVKKLFKK-NH2)', 'Human erythrocytes', 'HC50 ± SD', '202.9 ± 17.5 µM');
